- TESTED_SYSTEM: T1, recombinant human TRAIL R2 (DR5)/Fc chimera (human, UniProt O14763 54-182)
- T1 construct: bought (R&D Systems); not shown: Fc of the bought chimera (R&D Systems)
- ASSAY_EXPLANATION: SPR (Biacore), DR5-Fc captured by anti-Fc, ATRIMER analyte; apparent
Examples of binders with documented Ka follow.
Supply the numeric figure in M⁻¹, leaving out any unit text.

029-15.B3D (designed binder, ATRIMER; also called 9b3d) EPPTQKPKKIVNAKKDVVNTKMFEELKSRLDTLAQEVALLKEQQALQTVCLKGTKVHMKCFLAFTQTKTFHEASEDCISRGGTLSTPQTGSENDALYEYLRQSVGNEAEIWLGLNELRTDGLWVDMTGARIAYKNWETEITAQPDGGVMRRSENCAVLSGAANGKWFDKRCRDQLPYICQFGIV
1.11e+06
029-15.A8G (designed binder, ATRIMER; also called 1a7b) EPPTQKPKKIVNAKKDVVNTKMFEELKSRLDTLAQEVALLKEQQALQTVCLKGTKVHMKCFLAFTQTKTFHEASEDCISRGGTLSTPQTGSENDALYEYLRQSVGNEAEIWLGLNRAWLRPRWVDMTGARIAYKNWETEITAQPDGGTLVSGENCAVLSGAANGKWFDKRCRDQLPYICQFGIV
6.43e+07
029-15.A1H (designed binder, ATRIMER; also called 8b6b) EPPTQKPKKIVNAKKDVVNTKMFEELKSRLDTLAQEVALLKEQQALQTVCLKGTKVHMKCFLAFTQTKTFHEASEDCISRGGTLSTPQTGSENDALYEYLRQSVGNEAEIWLGLNRAVLRPRWVDMTGARIAYKNWETEITAQPDGGWVLGGKNCAVLSGAANGKWFDKRCRDQLPYICQFGIV
2.56e+07
029-15.A3C (designed binder, ATRIMER; also called 4a8c) EPPTQKPKKIVNAKKDVVNTKMFEELKSRLDTLAQEVALLKEQQALQTVCLKGTKVHMKCFLAFTQTKTFHEASEDCISRGGTLSTPQTGSENDALYEYLRQSVGNEAEIWLGLNRATLRPRWVDMTGARIAYKNWETEITAQPDGGKNCAVLSGAANGKWFDKRCRDQLPYICQFGIV
1.74e+08

Could you now consider this next binder?
Q: Return reported Ka; argument: 029-15.B9F (designed binder, ATRIMER; also called 2a1a) EPPTQKPKKIVNAKKDVVNTKMFEELKSRLDTLAQEVALLKEQQALQTVCLKGTKVHMKCFLAFTQTKTFHEASEDCISRGGTLSTPQTGSENDALYEYLRQSVGNEAEIWLGLNKRVWYRGWVDMTGARIAYKNWETEITAQPDGGMRRRRENCAVLSGAANGKWFDKRCRDQLPYICQFGIV
A: 2.38e+07
